measurement-context: 298.15 K; 101 kPa; Liquid; Vibrating tube method
The entries below are paired with their reported mass density.
observation-type: mass density (kg/m3)

>>> reported_measurement("CCC(C)O (stereo unspecified) [butan-2-ol]")
803
>>> reported_measurement("CCCC(C)O (stereo unspecified) [pentan-2-ol]")
805.4
>>> reported_measurement("CC(=O)N(C)C [N,N-dimethylethanamide]")
936.5
>>> reported_measurement("CCCCCC(C)O (stereo unspecified) [2-heptanol]")
813.2
>>> reported_measurement("CCCCC(C)O (stereo unspecified) [2-hexanol]")
810.1
>>> reported_measurement("CC(C)O [propan-2-ol]")
781.1

====

measurement-context: 303.15 K; 101 kPa; Liquid; Vibrating tube method
Numbers after ± are expanded uncertainties.
The entries below are paired with their reported mass density.
observation-type: mass density

>>> reported_measurement("CCCCC(C)O (stereo unspecified) [2-hexanol]")
"806.1 ± 0.2 kg/m3"
>>> reported_measurement("CCCC(C)O (stereo unspecified) [pentan-2-ol]")
"800.9 ± 0.2 kg/m3"
>>> reported_measurement("CC(=O)N(C)C [N,N-dimethylethanamide]")
"932 ± 0.2 kg/m3"
>>> reported_measurement("CC(C)O [propan-2-ol]")
"776.8 ± 0.2 kg/m3"
>>> reported_measurement("CCCCCC(C)O (stereo unspecified) [2-heptanol]")
"809.5 ± 0.2 kg/m3"
>>> reported_measurement("CCC(C)O (stereo unspecified) [butan-2-ol]")
"798.9 ± 0.2 kg/m3"

====

measurement-context: 308.15 K; 101 kPa; Liquid; Vibrating tube method
mass density of 800 kg/m3 or higher: condition met. Under 800 kg/m3: condition not met.

>>> discrete_label("CC(=O)N(C)C [N,N-dimethylethanamide]")
"condition met"
>>> discrete_label("CC(C)O")
"condition not met"

====

measurement-context: 313.15 K; 101 kPa; Liquid; Vibrating tube method
± gives the expanded uncertainty stated by the source.
observation-type: mass density

>>> reported_measurement("CCC(C)O (stereo unspecified) [butan-2-ol]")
"790.2 ± 0.2 kg/m3"
>>> reported_measurement("CCCCCC(C)O (stereo unspecified) [2-heptanol]")
"801.5 ± 0.2 kg/m3"
>>> reported_measurement("CC(=O)N(C)C [N,N-dimethylethanamide]")
"923.5 ± 0.2 kg/m3"
>>> reported_measurement("CCCC(C)O (stereo unspecified) [pentan-2-ol]")
"792.6 ± 0.2 kg/m3"
>>> reported_measurement("CC(C)O [propan-2-ol]")
"767.8 ± 0.2 kg/m3"
>>> reported_measurement("CCCCC(C)O (stereo unspecified) [2-hexanol]")
"798 ± 0.2 kg/m3"

====

measurement-context: 308.15 K; 101 kPa; Liquid
Field 'label' (enum: class 1 / class 0). Set to class 1 when viscosity is strictly under 2 mPa·s; else class 0.

>>> discrete_label("CC(C)O")
"class 1"
>>> discrete_label("CCCC(C)O (stereo not given)")
"class 0"
>>> discrete_label("CCCCC(C)O (stereo not given)")
"class 0"
>>> discrete_label("CCC(C)O (stereo not given)")
"class 0"
>>> discrete_label("CCCCCC(C)O (stereo not given)")
"class 0"

====

The entries below are paired with their reported viscosity.
measurement-context: 298.15 K; 101 kPa; Liquid
± gives the expanded uncertainty stated by the source.
observation-type: viscosity

>>> reported_measurement("CCCC(C)O (stereo unspecified) [pentan-2-ol]")
"3.5 ± 0.1 mPa·s"
>>> reported_measurement("CCCCCC(C)O (stereo unspecified) [2-heptanol]")
"5.3 ± 0.15 mPa·s"
>>> reported_measurement("CCCCC(C)O (stereo unspecified) [2-hexanol]")
"4.1 ± 0.15 mPa·s"
>>> reported_measurement("CC(C)O [propan-2-ol]")
"2.05 ± 0.06 mPa·s"
>>> reported_measurement("CCC(C)O (stereo unspecified) [butan-2-ol]")
"3.1 ± 0.09 mPa·s"
>>> reported_measurement("CC(=O)N(C)C [N,N-dimethylethanamide]")
"0.94 ± 0.03 mPa·s"

====

The entries below are paired with their reported viscosity.
measurement-context: 313.15 K; 101 kPa; Liquid
observation-type: viscosity (mPa·s)

>>> reported_measurement("CCCCC(C)O (stereo unspecified)")
2.22
>>> reported_measurement("CC(C)O")
1.35
>>> reported_measurement("CCC(C)O (stereo unspecified)")
1.8
>>> reported_measurement("CCCCCC(C)O (stereo unspecified)")
2.96
>>> reported_measurement("CC(=O)N(C)C [N,N-dimethylethanamide]")
0.75
>>> reported_measurement("CCCC(C)O (stereo unspecified)")
1.98

====

measurement-context: 303.15 K; 101 kPa; Liquid
Numbers after ± are expanded uncertainties.
observation-type: viscosity

>>> reported_measurement("CCCCCC(C)O (stereo unspecified)")
"4.48 ± 0.13 mPa·s"
>>> reported_measurement("CCCC(C)O (stereo unspecified)")
"2.83 ± 0.082 mPa·s"
>>> reported_measurement("CC(C)O")
"1.79 ± 0.05 mPa·s"
>>> reported_measurement("CC(=O)N(C)C [N,N-dimethylethanamide]")
"0.87 ± 0.03 mPa·s"
>>> reported_measurement("CCCCC(C)O (stereo unspecified)")
"3.41 ± 0.12 mPa·s"
>>> reported_measurement("CCC(C)O (stereo unspecified)")
"2.53 ± 0.07 mPa·s"

====

measurement-context: 308.15 K; 101 kPa; Liquid; Vibrating tube method
± gives the expanded uncertainty stated by the source.
observation-type: mass density

>>> reported_measurement("CCCCC(C)O (centres undefined) [2-hexanol]")
"802.1 ± 0.2 kg/m3"
>>> reported_measurement("CCC(C)O (centres undefined) [butan-2-ol]")
"795 ± 0.2 kg/m3"
>>> reported_measurement("CCCCCC(C)O (centres undefined) [2-heptanol]")
"805.7 ± 0.2 kg/m3"
>>> reported_measurement("CCCC(C)O (centres undefined) [pentan-2-ol]")
"796.9 ± 0.2 kg/m3"

FYI, the data here is from the NIST ThermoML archive (doi:10.1021/je400917j).
